Taken from paper PMC9352680.

- Test Target: T1, PUF4 RNA-binding domain (Saccharomyces cerevisiae, UniProt P25339 537-888)
- T1 sequence: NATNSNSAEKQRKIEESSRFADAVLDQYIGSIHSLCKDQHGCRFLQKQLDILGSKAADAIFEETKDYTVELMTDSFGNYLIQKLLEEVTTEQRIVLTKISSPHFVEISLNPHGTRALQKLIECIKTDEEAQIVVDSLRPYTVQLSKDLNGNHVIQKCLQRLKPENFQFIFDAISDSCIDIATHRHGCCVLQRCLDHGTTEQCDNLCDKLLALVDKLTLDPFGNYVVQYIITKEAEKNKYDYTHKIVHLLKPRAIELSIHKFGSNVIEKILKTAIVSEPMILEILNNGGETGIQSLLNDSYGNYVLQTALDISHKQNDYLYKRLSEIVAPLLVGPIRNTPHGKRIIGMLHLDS
- Test Name: Mg; RNA-MaP; 20 mM Na-HEPES pH 7.4, 30 mM KOAc, 0.75 mM MgCl2, 0.1% Tween-20, 5% glycerol, 0.1 mg/mL BSA, 2 mM DTT; 25 C; 0.0125-409.6 nM protein
- Experimental Context: tags: N-His6-TEV cleaved; C-SNAP kept, Cy3B-labelled; label: tethered on chip by stalled RNA polymerase
Listing of recorded pKd by entry.
Lab note — pKd values are minus log10 of concentrations in M.

For orientation, consider the following solved cases.
Binder	pKd
UCUCUUUGUAGUAAUCUCUU (ssRNA) [Ic_S1_P3E.1_K3.1_C3.1_H3.1_A3.1_[T5G]_[A6T]_F3.1_[T7A]_T3.1]	5.90
UCUCUUUGUACUGCAUUCUCUU (ssRNA) [Ic_S1_P5E.1_K5.1_C5.1_H5.1_A5.1_[T5C]_[A7G]_F5.1_[T8C]_[T9A]_[A10T]_T5.1]	6.27
UCUCUUAACUGUAUAUAUAUCUCUU (ssRNA) [Id_i_S1_P3E.5_K3.1_C3.3_[T-3A]_[C-2A]_[T-1C]_H3.1_A3.1_F3.1_T3.2]	8.22
Ic_S4_P5E.1_K5.1_C5.1_H5.1_A5.1_[T5C]_[A7G]_F5.1_[T8C]_[T9G]_[A10C]_T5.1 (ssRNA) RNA: UUUGACAACUGAUCGUUCUUUCUUGUACUGCGCUUCUUUCUCGAUCAGUUGUCUUU	5.87
Id_ii_S2_P5E.4_K5.3_C5.2_[C-2G]_H5.3_A5.1_F5.1_T5.2_[T11C]_[A12T] (ssRNA) RNA: UUUGAUUAAUAUGAUAUCGUUCUUUCUGUACACUUAUUACUUUCUUUCUCGAUAUCAUAUUAAUCUUU	7.96
UCUCUUUGUACCGUAUCUCUU (ssRNA) [Ic_S1_P4E.1_K4.1_C4.1_H4.1_A4.1_[T5C]_[A6C]_[T7G]_F4.1_T4.1]	7.63

Lab note: ACAAACCCUAUAUUAUUAAUACAAAC (ssRNA) [Id_ii_S3_P5E.3_K5.2_C5.2_[T-1C]_H5.2_A5.1_F5.1_T5.2_[T11A]_[A12T]] gave pKd of 6.33

Lab note: Ie_S4_P3E.2_K3.1_C3.2_H3.1_[+1CCT]_A3.1_F3.1_T3.2 (ssRNA) RNA: UUUGACAACUGAUCGUUCUUUCUCUUCCUGUAUAUAUAUUCUUUCUCGAUCAGUUGUCUUU gave pKd of 8.97

Lab note: UCUCUUUAUGUAUAUUAACUCUCUU (ssRNA) [Id_ii_S1_P4E.2_K4.1_C4.2_[C-2T]_[T-1A]_H4.1_A4.1_F4.1_T4.2_[G10A]_[T11C]] gave pKd of 8.87

Lab note: Ic_S2_P4E.1_K4.1_C4.1_H4.1_A4.1_[T5G]_[A6T]_[T7C]_F4.1_[T8G]_[A9T]_T4.1 (ssRNA) RNA: UUUGAUUAAUAUGAUAUCGUUCUUUCUUGUAGUCGUUUCUUUCUCGAUAUCAUAUUAAUCUUU gave pKd of 6.54

Lab note: Ic_S4_P4E.1_K4.1_C4.1_H4.1_A4.1_[T5A]_[A6T]_[T7C]_F4.1_[T8G]_[A9G]_T4.1 (ssRNA) RNA: UUUGACAACUGAUCGUUCUUUCUUGUAAUCGGUUCUUUCUCGAUCAGUUGUCUUU gave pKd of 5.72

Lab note: Id_ii_S2_P4E.4_K4.3_C4.2_[C-2G]_H4.3_A4.1_F4.1_T4.2_[G10A]_[T11C] (ssRNA) RNA: UUUGAUUAAUAUGAUAUCGUUCUUUCUGUACACUAUUAACUUCUUUCUCGAUAUCAUAUUAAUCUUU gave pKd of 9.30
